measuredOn: OGG1 WT (untagged) (human, UniProt O15527 1-345)
Sequence (O15527 whole entry): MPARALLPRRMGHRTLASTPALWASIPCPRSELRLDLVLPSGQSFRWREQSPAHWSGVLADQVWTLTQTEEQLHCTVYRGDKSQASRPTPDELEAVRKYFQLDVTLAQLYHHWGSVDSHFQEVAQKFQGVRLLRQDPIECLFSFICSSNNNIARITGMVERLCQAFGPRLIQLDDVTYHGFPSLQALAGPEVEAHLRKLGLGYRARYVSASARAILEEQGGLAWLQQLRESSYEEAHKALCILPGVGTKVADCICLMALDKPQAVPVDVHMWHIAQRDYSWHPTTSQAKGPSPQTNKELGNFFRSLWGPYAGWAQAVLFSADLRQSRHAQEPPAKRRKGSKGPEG
experimentNotes: EMSA
assayEndpoint: Kd (µM)

binder | valueReported
24-mer G:C duplex (dsDNA) DNA 1: CTGATCGATGACGCCTGACATGAT DNA 2: ATCATGTCAGGCGTCATCGATCAG | 2.22

FYI, the data here is from paper PMC10250219.
